Consider the following pIC50 data for UniProt P11712, collected from several reports.
pIC50: −log10 of the molar value.

Previously resolved entries follow.
CC1(c2cccc(-c3cncnc3)c2)COCC(N)=N1 (centres unmarked) :: < 4.30
C[C@H](c1ccc(F)cc1)n1cncc1CN1CCN(S(=O)(=O)c2cnc(N3CCN4C[C@H](O)CC4(C)C3)s2)CC1 (some centres unmarked) :: 5.87
COc1ccnc(Oc2ccc(/N=c3\[nH]c(=O)n(C[C@H](C)C(=O)O)c(=O)n3Cc3ccc(Cl)cc3)cc2)c1 :: < 4.70
Cc1cc(Nc2ncc(Cl)c(Nc3cn(C)nc3S(=O)(=O)C(C)C)n2)c(OC(C)C)cc1C1CC(C)N(C)C(C)C1 (centres unmarked) :: < 5.00
CN1C(=O)N(c2cccc(C(F)(F)F)c2)C2=C(C(=O)NCC2)C1c1ccc(C#N)cc1-c1cccnc1 (centres unmarked) :: < 4.30

Result for `C[C@@H](C#N)NC(=O)c1ccc(-c2nc(Nc3cnn(C4CCN(C)CC4)c3)ncc2F)cc1` , tested on UniProt P11712, pIC50: < 4.30

Result for `COc1cc2c(NC3CCN(C(C)C)CC3)nc(-n3ccnc3)nc2cc1OCCCN1CCCC1` , tested on UniProt P11712, pIC50: < 4.00

Result for `COCCOc1ncnc2[nH]cc(Cc3ccc(Nc4ccc(C)nc4)nc3F)c12` , tested on UniProt P11712, pIC50: < 5.00
